Values from ChEMBL document CHEMBL1961873

Listed here are molecules together with their documented inhibition.
targetOfAssay: Serine/threonine-protein kinase Nek1 (Homo sapiens)
Sequence (whole entry): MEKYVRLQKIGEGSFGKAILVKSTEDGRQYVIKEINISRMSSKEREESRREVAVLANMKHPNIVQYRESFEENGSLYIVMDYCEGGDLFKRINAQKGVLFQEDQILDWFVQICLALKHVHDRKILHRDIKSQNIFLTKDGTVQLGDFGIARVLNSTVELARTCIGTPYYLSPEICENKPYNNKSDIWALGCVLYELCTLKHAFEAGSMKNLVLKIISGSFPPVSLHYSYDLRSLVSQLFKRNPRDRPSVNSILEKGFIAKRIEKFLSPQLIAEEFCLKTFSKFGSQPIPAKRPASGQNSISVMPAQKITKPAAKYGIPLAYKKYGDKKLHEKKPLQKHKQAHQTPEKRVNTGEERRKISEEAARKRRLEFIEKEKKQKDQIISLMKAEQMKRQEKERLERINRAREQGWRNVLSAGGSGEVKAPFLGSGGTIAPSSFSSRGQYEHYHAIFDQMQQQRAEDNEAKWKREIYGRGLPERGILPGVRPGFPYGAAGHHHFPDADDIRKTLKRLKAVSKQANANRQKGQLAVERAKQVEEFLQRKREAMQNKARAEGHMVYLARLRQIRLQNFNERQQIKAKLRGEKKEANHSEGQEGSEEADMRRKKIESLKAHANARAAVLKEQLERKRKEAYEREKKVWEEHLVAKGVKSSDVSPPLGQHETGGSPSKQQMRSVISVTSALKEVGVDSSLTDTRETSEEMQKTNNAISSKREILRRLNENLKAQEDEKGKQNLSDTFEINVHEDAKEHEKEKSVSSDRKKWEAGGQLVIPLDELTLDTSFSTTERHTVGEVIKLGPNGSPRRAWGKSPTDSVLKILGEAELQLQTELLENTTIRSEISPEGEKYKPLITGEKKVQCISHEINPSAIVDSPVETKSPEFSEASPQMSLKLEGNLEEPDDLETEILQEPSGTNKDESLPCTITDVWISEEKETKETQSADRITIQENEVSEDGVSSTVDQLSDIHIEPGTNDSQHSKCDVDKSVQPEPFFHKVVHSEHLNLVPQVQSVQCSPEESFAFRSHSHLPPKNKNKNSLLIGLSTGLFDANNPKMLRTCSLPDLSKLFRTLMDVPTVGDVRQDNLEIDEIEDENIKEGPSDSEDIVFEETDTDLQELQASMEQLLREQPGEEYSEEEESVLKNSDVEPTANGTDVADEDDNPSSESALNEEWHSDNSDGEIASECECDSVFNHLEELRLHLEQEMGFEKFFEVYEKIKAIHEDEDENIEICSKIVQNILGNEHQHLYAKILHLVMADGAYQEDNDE
conditionsUsed: at 1 µM
Description: GSK_PKIS: NEK1 mean inhibition at 1 uM [Nanosyn]

smiles: Nc1ccc(C#Cc2cncnc2Nc2ccc(OCc3cccc(F)c3)c(Cl)c2)cc1
targetOfAssay: Serine/threonine-protein kinase Nek1 (Homo sapiens)
inhibition (%): 2.7

smiles: c1ccc(Nc2ncc(-c3ccccc3)o2)cc1
targetOfAssay: Serine/threonine-protein kinase Nek1 (Homo sapiens)
inhibition (%): 2.57

smiles: CN(C)CCCn1c(-c2nonc2N)nc2cnccc21
targetOfAssay: Serine/threonine-protein kinase Nek1 (Homo sapiens)
inhibition (%): 2.28

smiles: NS(=O)(=O)c1cccc(Nc2cc(-c3ccc(F)cc3)n[nH]2)c1
targetOfAssay: Serine/threonine-protein kinase Nek1 (Homo sapiens)
inhibition (%): 3.87

smiles: COc1cccc(-n2ncc3c(N/N=C/c4ccc(C)cc4)ncnc32)c1
targetOfAssay: Serine/threonine-protein kinase Nek1 (Homo sapiens)
inhibition (%): 9.78

smiles: COC(=O)Nc1nc2cc(Oc3ccc(NC(=O)Nc4cccc(Br)c4)cc3)ccc2[nH]1
targetOfAssay: Serine/threonine-protein kinase Nek1 (Homo sapiens)
inhibition (%): 2.19

smiles: Oc1cccc(-c2nc(-c3ccccc3)[nH]c2-c2ccncc2)c1
targetOfAssay: Serine/threonine-protein kinase Nek1 (Homo sapiens)
inhibition (%): 3.39

smiles: Cc1ccc2c(-c3ccnc(Nc4cccc(C(F)(F)F)c4)n3)c(-c3ccccc3)nn2n1
targetOfAssay: Serine/threonine-protein kinase Nek1 (Homo sapiens)
inhibition (%): 2.67

smiles: COc1ccc2ncnc(Nc3ccc(OCc4ccccc4)cc3)c2c1
targetOfAssay: Serine/threonine-protein kinase Nek1 (Homo sapiens)
inhibition (%): 4.16

smiles: COC(=O)c1ccc2c(c1)C(=Cc1cc(Br)c(O)c(Br)c1)C(=O)N2
targetOfAssay: Serine/threonine-protein kinase Nek1 (Homo sapiens)
inhibition (%): 2.21

smiles: NS(=O)(=O)c1cccc(-c2cc3ccncc3cc2OCc2ccccc2)c1
targetOfAssay: Serine/threonine-protein kinase Nek1 (Homo sapiens)
inhibition (%): 2.55

* * *

targetOfAssay: PAS domain-containing serine/threonine-protein kinase (Homo sapiens) (UniProt Q96RG2)
Sequence (Q96RG2 whole entry, the tested form may be a part): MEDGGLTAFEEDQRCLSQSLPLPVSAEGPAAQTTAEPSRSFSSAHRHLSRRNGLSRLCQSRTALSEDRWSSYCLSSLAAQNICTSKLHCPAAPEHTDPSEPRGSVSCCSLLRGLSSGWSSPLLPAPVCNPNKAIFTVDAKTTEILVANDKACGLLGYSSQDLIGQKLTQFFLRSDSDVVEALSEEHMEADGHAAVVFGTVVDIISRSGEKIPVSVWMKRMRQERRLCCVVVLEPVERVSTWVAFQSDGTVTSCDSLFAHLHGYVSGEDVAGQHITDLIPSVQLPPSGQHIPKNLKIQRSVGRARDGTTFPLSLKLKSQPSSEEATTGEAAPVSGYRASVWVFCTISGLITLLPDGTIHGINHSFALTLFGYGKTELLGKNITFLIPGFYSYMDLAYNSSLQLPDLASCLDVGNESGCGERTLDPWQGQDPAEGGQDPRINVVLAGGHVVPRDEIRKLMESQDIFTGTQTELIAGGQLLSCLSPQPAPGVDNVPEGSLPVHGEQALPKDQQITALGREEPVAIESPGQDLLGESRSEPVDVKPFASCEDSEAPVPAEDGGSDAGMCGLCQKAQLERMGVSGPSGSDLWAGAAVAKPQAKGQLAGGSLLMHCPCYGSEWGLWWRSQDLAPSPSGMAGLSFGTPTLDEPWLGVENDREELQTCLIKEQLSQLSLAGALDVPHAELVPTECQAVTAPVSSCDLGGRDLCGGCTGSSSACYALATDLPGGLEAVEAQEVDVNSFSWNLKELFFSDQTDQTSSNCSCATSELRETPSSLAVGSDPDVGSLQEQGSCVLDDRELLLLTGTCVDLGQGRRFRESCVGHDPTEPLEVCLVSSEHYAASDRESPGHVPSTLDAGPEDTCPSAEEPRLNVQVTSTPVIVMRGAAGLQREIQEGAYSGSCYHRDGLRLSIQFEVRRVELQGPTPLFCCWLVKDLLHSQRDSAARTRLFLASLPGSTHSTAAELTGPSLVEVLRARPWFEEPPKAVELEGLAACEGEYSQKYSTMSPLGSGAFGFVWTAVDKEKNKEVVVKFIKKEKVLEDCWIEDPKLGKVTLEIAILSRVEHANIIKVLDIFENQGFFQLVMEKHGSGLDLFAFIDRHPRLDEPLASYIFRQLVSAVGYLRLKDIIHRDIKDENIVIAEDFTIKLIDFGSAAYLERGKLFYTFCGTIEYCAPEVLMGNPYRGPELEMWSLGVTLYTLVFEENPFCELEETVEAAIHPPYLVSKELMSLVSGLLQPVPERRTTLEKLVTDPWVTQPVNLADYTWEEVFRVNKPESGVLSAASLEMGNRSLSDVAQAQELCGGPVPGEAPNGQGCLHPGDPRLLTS
conditionsUsed: at 0.1 µM
Description: GSK_PKIS: PASK mean inhibition at 0.1 uM [Nanosyn]
propertyMeasured: inhibition (%)

smiles: c1ccc(Nc2ncc(-c3ccccc3)o2)cc1
propertyMeasured: inhibition
reading: -0.05
--
smiles: Cc1cc(Cl)cc2c1NC(=O)C2=NNc1ccc(S(N)(=O)=O)cc1
propertyMeasured: inhibition
reading: 0.48
--
smiles: Cc1ccc(O)cc1Nc1ccnc2ccc(S(C)(=O)=O)cc12
propertyMeasured: inhibition
reading: -0.05
--
smiles: CS(=O)(=O)CCNCc1nc(-c2ccc3ncnc(Nc4ccc(OCc5cccc(C(F)(F)F)c5)cc4)c3c2)cs1
propertyMeasured: inhibition
reading: 0.16
--
smiles: Cc1ccc2c(-c3ccnc(Nc4ccc5c(c4)OCCO5)n3)c(-c3ccc(C(F)(F)F)cc3)nn2n1
propertyMeasured: inhibition
reading: 1.16

* * *

targetOfAssay: Fibroblast growth factor receptor 1 (Homo sapiens);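 further: values are reported as mean percent inhibition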
conditionsUsed: at 0.1 µM
propertyMeasured: inhibition (%)

compound: CN(c1ccc(NC(=O)Nc2ccc(OC(F)(F)F)cc2)cc1)c1ccnc(Nc2cccc(S(N)(=O)=O)c2)n1
reading: 2.49

compound: COc1cccc(-n2ncc3c(N/N=C/c4ccc(S(C)(=O)=O)cc4)ncnc32)c1
reading: 3.99

compound: CN(C)CCCn1c(-c2nonc2N)nc2cnccc21
reading: 3.21

compound: CC(C)c1ccc(Nc2nccc(-c3cnn4ncccc34)n2)cc1
reading: 4.84

compound: COc1cc(Nc2nccc(-c3cnn4ncccc34)n2)cc(OC)c1
reading: -4.05

compound: Nc1nccc(-c2c(-c3ccc(F)cc3)ncn2CCCN2CCOCC2)n1
reading: 1.48

compound: O=C(Nc1ccc(Oc2ccc3[nH]c(NC(=O)c4ccco4)nc3c2)cc1)Nc1cc(C(F)(F)F)ccc1F
reading: -3.4

compound: C[C@@H](Oc1cc(-n2cnc3ccc(OCC4CCN(C)CC4)cc32)sc1C(N)=O)c1ccccc1C(F)(F)F
reading: -9.02

compound: Cc1ccc2c(-c3ccnc(Nc4cccc(C(F)(F)F)c4)n3)c(-c3ccccc3)nn2n1
reading: 5.59

compound: NS(=O)(=O)c1cccc(Nc2cc(-c3ccc(F)cc3)n[nH]2)c1
reading: 0.46

compound: COc1cccc(-n2nc(C)c3c(N/N=C(\C)c4ccncc4)ncnc32)c1
reading: 1.88

compound: CCn1c(-c2nonc2N)nc2ccc(F)cc21
reading: 3.73

compound: NC(=O)c1cccc(Nc2nccc(Nc3cccc(F)c3)n2)c1
reading: 9.63

compound: Cc1nc(-c2ccccc2)n2nc(NCCCN3CCOCC3)ncc12
reading: -1.62

compound: COc1cc2ncnc(Nc3ccc(C)c(O)c3)c2cc1OC
reading: 4.9

compound: CC(C)c1ccc2c(c1)NC(=O)/C2=N/Nc1ccc(S(N)(=O)=O)cc1
reading: 3.46

compound: CCn1c(-c2nonc2N)nc2c(C#CC(C)(C)O)nc(OCCNC)cc21
reading: 6.92

compound: NS(=O)(=O)c1ccc(Nc2cc(-c3cccc(O)c3)n[nH]2)cc1
reading: 7.55

compound: c1ccc(Nc2ncc(-c3ccccc3)o2)cc1
reading: -1.19

compound: COC(=O)Nc1nc2cc(Oc3ccc(NC(=O)Nc4cccc(Br)c4)cc3)ccc2[nH]1
reading: 3.32

compound: CCCN1CCCC(c2ccc(Nc3nc(Nc4cc(F)ccc4C(N)=O)c4cc[nH]c4n3)c(OC)c2)C1 (stereo unspecified)
reading: 3.11

* * *

targetOfAssay: Serine/threonine-protein kinase Sgk1 (Homo sapiens) (UniProt O00141)
Sequence (whole entry): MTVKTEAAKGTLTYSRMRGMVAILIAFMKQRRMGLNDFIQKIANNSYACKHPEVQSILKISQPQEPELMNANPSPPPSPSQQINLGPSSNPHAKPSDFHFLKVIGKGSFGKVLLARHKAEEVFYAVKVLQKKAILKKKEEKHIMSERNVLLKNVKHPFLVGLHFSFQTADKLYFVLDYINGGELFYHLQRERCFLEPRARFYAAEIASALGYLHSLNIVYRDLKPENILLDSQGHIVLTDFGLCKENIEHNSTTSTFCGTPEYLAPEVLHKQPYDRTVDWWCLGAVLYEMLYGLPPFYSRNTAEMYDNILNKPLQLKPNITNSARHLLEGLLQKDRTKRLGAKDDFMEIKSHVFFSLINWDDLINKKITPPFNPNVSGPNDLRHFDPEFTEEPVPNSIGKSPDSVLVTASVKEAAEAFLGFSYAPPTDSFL
conditionsUsed: at 1 µM
propertyMeasured: inhibition

smiles: OCc1ccc(-c2nc(-c3ccccn3)c(-c3ccc4c(c3)OCO4)[nH]2)cc1
targetOfAssay: Serine/threonine-protein kinase Sgk1 (Homo sapiens) (UniProt O00141)
reading: 0.91%
--
smiles: NC(=O)c1cccc(Nc2nccc(Nc3cccc(F)c3)n2)c1
targetOfAssay: Serine/threonine-protein kinase Sgk1 (Homo sapiens) (UniProt O00141)
reading: -0.08%
--
smiles: FC(F)(F)c1ccc(-c2nn3ncccc3c2-c2ccnc(Nc3ccc4c(c3)OCCO4)n2)cc1
targetOfAssay: Serine/threonine-protein kinase Sgk1 (Homo sapiens) (UniProt O00141)
reading: 10.2%
--
smiles: N#Cc1cccc(Nc2nccc(-c3cnn4ncccc34)n2)c1
targetOfAssay: Serine/threonine-protein kinase Sgk1 (Homo sapiens) (UniProt O00141)
reading: 10.4%
--
smiles: Cc1ccc2c(-c3ccnc(Nc4cccc(C(F)(F)F)c4)n3)c(-c3ccccc3)nn2n1
targetOfAssay: Serine/threonine-protein kinase Sgk1 (Homo sapiens) (UniProt O00141);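 further: mean percent inhibition of SGK1, from the GSK PKIS screening panel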
reading: 3.64%
